Ref: patent US20240199546A1

Biological target: human SLC6A19 and TMEM27 (Homo sapiens)
Construct: expressed in transfected cells
Sequence (Q695T7 1-634): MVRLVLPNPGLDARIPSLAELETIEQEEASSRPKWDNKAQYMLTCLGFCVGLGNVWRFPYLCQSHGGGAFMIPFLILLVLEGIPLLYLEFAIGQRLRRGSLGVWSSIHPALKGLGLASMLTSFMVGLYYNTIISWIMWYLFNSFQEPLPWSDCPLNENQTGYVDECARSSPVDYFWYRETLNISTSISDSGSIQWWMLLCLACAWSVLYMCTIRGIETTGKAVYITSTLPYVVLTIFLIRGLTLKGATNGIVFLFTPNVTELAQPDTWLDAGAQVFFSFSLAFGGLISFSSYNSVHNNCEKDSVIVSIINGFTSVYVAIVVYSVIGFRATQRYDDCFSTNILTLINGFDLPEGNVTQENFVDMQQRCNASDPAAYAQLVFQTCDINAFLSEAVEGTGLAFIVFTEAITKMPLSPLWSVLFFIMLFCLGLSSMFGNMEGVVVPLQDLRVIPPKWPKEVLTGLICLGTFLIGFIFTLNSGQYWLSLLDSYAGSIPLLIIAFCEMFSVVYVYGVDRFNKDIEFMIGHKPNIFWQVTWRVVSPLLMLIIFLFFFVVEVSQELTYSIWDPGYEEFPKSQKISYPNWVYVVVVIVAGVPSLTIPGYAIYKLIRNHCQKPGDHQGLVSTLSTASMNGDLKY
Sequence (Q9HBJ8 15-222 partner): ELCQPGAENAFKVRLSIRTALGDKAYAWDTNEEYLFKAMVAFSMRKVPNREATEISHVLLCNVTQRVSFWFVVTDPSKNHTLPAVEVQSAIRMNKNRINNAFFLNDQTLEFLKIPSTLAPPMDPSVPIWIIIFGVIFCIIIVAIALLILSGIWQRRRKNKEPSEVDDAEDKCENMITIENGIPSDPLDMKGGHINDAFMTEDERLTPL
Assay: Radiolabelled (3H) leucine uptake in CHO cells with doxycycline-inducible expression of human SLC6A19 and TMEM27 (Example B-1)
Assay type: cell-based
Details: CHO cells with doxycycline-inducible expression of human SLC6A19 and TMEM27, read-out: SLC6A19_Radioligand Uptake Assay IC50
ASSAY METRIC: IC50 (nM)

Some molecules with known IC50 results, for comparison:
{"MOLECULE": "Cc1cc(COc2cc3[nH]c(CNC(=O)[C@H]4C[C@H]4F)cc3cc2Cl)on1 [Compound 539]", "ASSAY METRIC": "IC50", "QUANTITATIVE READOUT": 123}
{"MOLECULE": "CC1(C(=O)NCc2cc3cc(Cl)c(OCc4ncsc4Cl)cc3[nH]2)CC1 [Compound 400]", "ASSAY METRIC": "IC50", "QUANTITATIVE READOUT": 556}
{"MOLECULE": "CC1(C(=O)NCc2cc3cc(C(F)F)c(OCc4cscn4)cc3[nH]2)CC1 [Compound 645]", "ASSAY METRIC": "IC50", "QUANTITATIVE READOUT": 955}

I: CC1(C(=O)NCc2cc3cc(Cl)c(COc4ccon4)cc3[nH]2)CC1 [Compound 613]
II: CC1(C(=O)NCc2cc3cc(F)c(CNc4ccon4)cc3[nH]2)CC1 [Compound 611]
input: From the items above, decide which of I and II has the lower IC50 reading. Respond with the label that goes with your answer.
output: I
(I: 82.4 nM, II: 842 nM)

A: CC1(C(=O)NCc2cc3cc(Cl)c(OCc4ccon4)cc3[nH]2)CCC1 [Compound 504]
B: CC1(C(=O)NCc2cc3cc(F)c(OCc4cccnc4F)cc3[nH]2)CC1 [Compound 332]
C: O=C(NCc1cc2cc(Cl)c(OCc3ccon3)cc2[nH]1)C1CC(F)(F)C1 [Compound 491]
input: Order each entry by recorded IC50, climbing from the minimum. Return value: ordered labels per request.
output: B, A, C

a: O=C(NCc1cc2cc(F)c(OCc3cocn3)cc2[nH]1)N1CCC1 [Compound 358]
b: CC(=O)NCc1cc2cc(Cl)c(OCCOC3CCC3)cc2[nH]1 [Compound 456]
input: Form field 'greater IC50' accepts a or b ; which applies? Respond with the label that goes with your answer.
output: b
(b: 4260 nM, a: 319 nM)

I: O=C(CC(F)F)NCc1cc2cc(F)c(OCc3cscn3)cc2[nH]1 [Compound 516]
II: CC(=O)NCc1cc2cc(Cl)c(OC[C@@H]3CCCO3)cc2[nH]1 [Compound 466]
input: Form field 'greater IC50' accepts I or II ; which applies? Respond with the label that goes with your answer.
output: II
(II: 2960 nM, I: 88.9 nM)
